Items are presented alongside their recorded TGI.
system: MCF7 breast; test: NCI tumour cell line growth inhibition, 48 h

// below: answered compounds
- compound: "COc1ccc2c(c1)CCN1CCc3ccccc3CC21 (stereo unspecified)"
  parameter: "TGI"
  reported: "> 100 µM"
- compound: "CCOC(=O)NC(Nc1cccc(C(F)(F)F)c1)(C(F)(F)F)C(F)(F)F"
  parameter: "TGI"
  reported: "> 100 µM"
- compound: "CCCCCCCCCCCCCCCCCCOc1ccccc1CC(=O)OCC[N+]1(C)CCCC1"
  parameter: "TGI"
  reported: "4.76 µM"
- compound: "Cc1ccc(S(=O)(=O)NC(=O)N[C@@H](Cc2cnc[nH]2)C(=O)O)cc1"
  parameter: "TGI"
  reported: "> 100 µM"

compound Cc1ccc2[nH]c(O)c(N=Nc3ccc(S(N)(=O)=O)cc3)c2c1 , TGI observed: > 25 µM

compound CN(C)C(=O)[C@H](O)[C@H](Cc1ccccc1)NC(=O)c1cc2cc(Cl)ccc2[nH]1 , TGI observed: > 83.3 µM

====

Items are presented alongside their recorded TGI.
system: U251 CNS; assay: NCI tumour cell line growth inhibition, 48 h
Reply numerically in µM, unit not repeated.

// below: answered compounds
- compound: "CCCCCCCCCCCC(=O)OCC1OC(OC)C(NC(=O)N(CCCl)N=O)C(O)C1O (stereo not given)"
  assay-target: "U251 CNS"
  TGI [µM]: 26.1
- compound: "C=CCc1ccc(Oc2cc(CC=C)c3c(c2O)O[C@@H](CO)[C@H]3c2ccc(O)c(-c3cc(CC=C)ccc3O)c2)cc1"
  assay-target: "U251 CNS"
  TGI [µM]: 51.8

compound CC(C)(C)OC(=O)NCCCNC1(c2cc3ccccc3s2)CCCCC1 , TGI observed: 74.8

====

Items are presented alongside their recorded TGI.
system: UACC-257 melanoma; experiment: NCI tumour cell line growth inhibition, 48 h

// below: answered molecules
- molecule: "COc1ccc2c(cnc3c4cc(OC)c(OC)cc4ccc23)c1"
  reported: "> 100 µM"
- molecule: "CCOC(=O)NC(Nc1cccc(C(F)(F)F)c1)(C(F)(F)F)C(F)(F)F"
  reported: "> 100 µM"
- molecule: "COc1ccc(C2OC(c3ccncc3)=NN2C)cc1OC (stereo not given)"
  reported: "> 100 µM"
- molecule: "COc1ccc(C(=O)COc2ccc(/C=C3\\COc4ccc(OC)cc4C3=O)cc2)cc1"
  reported: "> 100 µM"
- molecule: "Nc1ccc2cc3ccc(N)cc3nc2c1"
  reported: "5.03 µM [middle of 4 runs]"

molecule COc1cc(/C=C/c2cc(/C=C/c3ccc(O)c(OC)c3)n(C(=O)Nc3ccc(C)cc3C)n2)ccc1O , TGI observed: 5.25 µM

molecule Clc1ccc(C=Nc2ccc3c(c2)Cc2ccccc2-3)c(Cl)c1 , TGI observed: > 100 µM

molecule CN(C)C(=O)[C@H](O)[C@H](Cc1ccccc1)NC(=O)c1cc2cc(Cl)ccc2[nH]1 , TGI observed: 43.5 µM

molecule COc1ccc(OC)c2c(C(=O)O)c(Cc3ccccc3)ccc12 , TGI observed: > 100 µM

molecule Cc1cc(NCc2ccccc2)c2ccccc2[n+]1CCCCCCCCCC[n+]1c(C)cc(NCc2ccccc2)c2ccccc21 , TGI observed: 1.31 µM
